- Test system: MOLT-4 leukemia
- experimental_protocol: NCI tumour cell line growth inhibition, 48 h
endpoint: TGI

Before answering, review these 3 worked examples.
| compound | observed_result |
| --- | --- |
| CCN(CC)CCC1(C(=O)OC)SCCc2ccc(C)cc21 (configuration not stated) | > 100 µM |
| COc1cccc(C2N3CCCCC3[C@@H]3c4[nH]c5ccccc5c4CCN23)c1OC (some centres not stated) | 36.6 µM |
| NC(=O)COc1ccc(Br)cc1Br | > 100 µM |

Note: attention shifts to another entry.
-- ask Tell me reported TGI for `CC(=O)[O-].CC(=O)[O-].CC(=O)[O-].CC(=O)[O-].CO.CO.CO.[Rh+2].[Rh+2].c1ccc(-c2ccccn2)nc1` , tested with MOLT-4 leukemia.
-- reply > 100 µM

The reported measurements were obtained from PubChem BioAssay (NCI).
